# credit: FireProtDB (doi:10.1074/jbc.273.32.19982)

B1: DNA-binding protein HU, P0A3H0 (parent)
chain: MNKTELINAVAETSGLSKKDATKAVDAVFDSITEALRKGDKVQLIGFGNFEVRERAARKGRNPQTGEEMEIPASKVPAFKPGKALKDAVK

variants of: B1; conditions: Geobacillus stearothermophilus; pH 7; Thermal; DSC; phosphate 0.05 M; structure 1HUE; whole UniProt chain shown
observedProperty: change of melting temperature, mutant - wild type (higher = more stable) (°C)
Express it in °C; write the number only.

Lab note: E34D gave change of melting temperature, mutant - wild type (higher = more stable) of -2.3

Lab note: G15E gave change of melting temperature, mutant - wild type (higher = more stable) of -10.1

Lab note: V42I gave change of melting temperature, mutant - wild type (higher = more stable) of -6.2

Lab note: K38N gave change of melting temperature, mutant - wild type (higher = more stable) of -4.1
